tested on: rats; test: Respiratory depression by blood gas (pCO2) monitoring in rats; assay type: in vivo; settings: rat, 0.30 mg/kg i.v., 32 min.
# note: boundary value 7% maps to no; Respiratory Depression % Units Baseline pCO2 below it maps to yes

C=CCN1C[C@@H](C)N([C@@H](c2ccsc2)c2cccc(O)c2)C[C@@H]1C [Compound 3]    yes
C=CCN1C[C@@H](C)N([C@H](c2ccsc2)c2cccc(O)c2)C[C@@H]1C    yes
C=CCN1C[C@H](C)N([C@@H](c2ccsc2)c2cccc(O)c2)C[C@H]1C (racemic) [Compound 4]    no
C=CCN1C[C@H](C)N([C@H](c2ccsc2)c2cccc(O)c2)C[C@H]1C    no
C=CCN1C[C@H](C)N([C@@H](c2ccsc2)c2cccc(O)c2)C[C@H]1C [Compound 5]    no

====

system: rats; test: Tail pinch test for analgesia in rats; format: in vivo; settings: rat, 0.30 mg/kg i.v., 4 min., cutoff 20 sec
attribute_measured: Analgesia (delay of response to tail pinch) (s)

C=CCN1C[C@@H](C)N([C@H](c2ccsc2)c2cccc(O)c2)C[C@@H]1C    0
C=CCN1C[C@@H](C)N([C@@H](c2ccsc2)c2cccc(O)c2)C[C@@H]1C [Compound 3]    0
C=CCN1C[C@H](C)N([C@@H](c2ccsc2)c2cccc(O)c2)C[C@H]1C (racemic) [Compound 4]    20
C=CCN1C[C@H](C)N([C@H](c2ccsc2)c2cccc(O)c2)C[C@H]1C    20
C=CCN1C[C@@H](C)N([C@@H](c2ccsc2)c2cccc(O)c2)C[C@@H]1C (racemic) [Compound 1]    19.5
C=CCN1C[C@H](C)N([C@@H](c2ccsc2)c2cccc(O)c2)C[C@H]1C [Compound 5]    20

====

biological target: δ opioid receptor (Rattus norvegicus, UniProt P33533); construct: tissue Pel-Freeze Biological Inc. (Rogers, Ark.); host or cells: rat whole brain membranes; test: Radioligand binding, [3H]Deltorphin II competition, rat brain membranes; conditions: read-out: Rat Brain Membrane K1 (nM) δ
Sequence (P33533 whole entry): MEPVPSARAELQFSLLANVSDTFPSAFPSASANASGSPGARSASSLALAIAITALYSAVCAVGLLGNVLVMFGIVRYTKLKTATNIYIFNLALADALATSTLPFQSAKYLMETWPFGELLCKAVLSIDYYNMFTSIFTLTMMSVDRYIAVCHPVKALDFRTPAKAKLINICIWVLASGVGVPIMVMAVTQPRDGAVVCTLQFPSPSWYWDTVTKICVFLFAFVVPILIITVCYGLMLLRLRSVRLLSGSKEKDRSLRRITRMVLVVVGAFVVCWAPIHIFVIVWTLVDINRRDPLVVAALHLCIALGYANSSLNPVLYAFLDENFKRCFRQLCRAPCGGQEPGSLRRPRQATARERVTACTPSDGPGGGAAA
The entries below are paired with their reported Ki.
attribute_measured: Ki (nM)

C=CCN1C[C@H](C)N([C@H](c2ccsc2)c2cccc(O)c2)C[C@H]1C    0.88
C=CCN1C[C@@H](C)N([C@@H](c2ccsc2)c2cccc(O)c2)C[C@@H]1C (racemic) [Compound 1]    1.29
C=CCN1C[C@@H](C)N([C@@H](c2ccsc2)c2cccc(O)c2)C[C@@H]1C [Compound 3]    744
C=CCN1C[C@H](C)N([C@@H](c2ccsc2)c2cccc(O)c2)C[C@H]1C [Compound 5]    113
C=CCN1C[C@@H](C)N([C@H](c2ccsc2)c2cccc(O)c2)C[C@@H]1C    13
C=CCN1C[C@H](C)N([C@@H](c2ccsc2)c2cccc(O)c2)C[C@H]1C (racemic) [Compound 4]    14.9

====

Test system: rats
Test: Tail pinch test for analgesia in rats
Format: in vivo
Settings: rat, intravenous, tail pinch, 20 sec cutoff
Description: Analgesia was assayed in rats using the tail pinch test with simultaneous monitoring of capillary blood gases (pCO2). During this testing period respiratory depression values were also obtained. […] The compounds 1-6 were administered intravenous. […] Samples were then analyzed with a blood gas analyzer (Ph/Gas Analyzer Synthesis 25 Model, Instrumentation Laboratory) to assess respiratory depression effects. […] The syringes were capped immediately and the blood gases analyzed within 5 minutes. […]
attribute_measured: ED50 (mg/kg)

C=CCN1C[C@H](C)N([C@@H](c2ccsc2)c2cccc(O)c2)C[C@H]1C [Compound 5]    0.03
C=CCN1C[C@H](C)N([C@@H](c2ccsc2)c2cccc(O)c2)C[C@H]1C (racemic) [Compound 4]    0.05
C=CCN1C[C@@H](C)N([C@@H](c2ccsc2)c2cccc(O)c2)C[C@@H]1C (racemic) [Compound 1]    0.21
C=CCN1C[C@H](C)N([C@H](c2ccsc2)c2cccc(O)c2)C[C@H]1C    0.046
